Assay: NCI Yeast Anticancer Drug Screen. Data for the mec2-1 strain (AID 157)
Settings: S. cerevisiae mec2-1 strain, at 5.0 µM (retest, dose inferred, filed as 0.5), hits give high values
Compounds without any hit were thinned out: in the full panel of roughly 79,000, 15% have a hit.
recordedMetric: growth inhibition (%)

- CC(C(O)c1ccccc1)[N+](=O)[O-] (stereo unspecified): 8
- O=C1CCC/C(c2ccccc2)=N\N=C/1c1ccccc1: 10
- NNC(=O)c1c(SCc2ccccc2)nc2c3ccccc3ccn12: 22
- C=CCOc1ccc(N=NC(C#N)C#N)cc1: 5
- CCCCCC(CO)C(O)(C(F)(F)F)C(F)(F)F (stereo unspecified): -26
- CS(=O)(=O)c1nc(Cl)c(Cl)c(C#N)c1Cl: 76
- CCCCCCCCCCCCCCCCNC(=S)N/C=C(/C#N)C(=O)OC: 89
- Cc1ccc(C)c(NC(=O)CCC(=O)C(C#N)c2cccc3ccccc23)c1 (stereo unspecified): 3
- Nc1nc(-c2ccccc2)c(-c2ccccc2)c(-c2nc(N)nc(-c3ccccc3)c2-c2ccccc2)n1: 6
- CC1=C(/C=C/C(C)=N/NC(N)=S)C(C)(C)CCC1: 5
- CCOC(=O)C(C)(c1c(C)[nH]c2ccccc12)c1c(C)[nH]c2ccccc12: -1
- COc1cc(N=Nc2cccc(S(N)(=O)=O)c2)c2ccccc2c1N: -2
- O=C(Cc1ccccc1)c1ccc(O)c(F)c1: 6
- CC(C)C(C)OC(=O)Nc1cccc(O)c1 (stereo unspecified): -48
- O=C1OC(=O)C2C3CCC(C3=C3CCCCC3)C12 (stereo unspecified): 7
- CCN(CC)CCN1C(=O)c2c(c3c4cccc(Cl)c4n(C4OC(CO)C(OC)C(O)C4O)c3c3[nH]c4c(Cl)cccc4c23)C1=O (stereo unspecified): 56

----------
Assay: NCI Yeast Anticancer Drug Screen. Data for the mlh1 rad18 strain (AID 175)
Conditions: S. cerevisiae mlh1 rad18 strain growth inhibition; at 5.0 µM (retest, dose inferred, filed as 0.5); hits give high values
This is part of a sample that, as a whole, favours compounds with a hit. Of some 79,000 tested, about 15% had one in any assay. Calls of active or inactive are those of the source. Rule as the data show it: active = growth inhibition above about 70%; inactive = the rest.
This listing pairs molecules with measured growth inhibition.
recordedMetric: growth inhibition

* COC(=O)c1ccccc1N=NN(C)CC1OC2OC(C)(C)OC2C1OC (centres undefined) | 4% (inactive)
* CC(=O)c1ccc(Br)cc1NC1=CC(=O)c2ncccc2C1=O | 87% (active)
* Cc1cc2nc(CC(=O)c3ccncc3)c(CC(=O)c3ccncc3)nc2cc1C | 12% (inactive)
* CC(=Nc1ccc(N(C)C)cc1)c1ccccc1 | -15% (inactive)
* CCOC(=O)C1SC(=Nc2ccc(Cl)cc2)N=C1C (centres undefined) | 34% (inactive)
* COC(=O)c1cccc2cccc(C(=O)Nc3ccc(Cl)cc3)c12 | 87% (active)
* NNc1c(Cl)c(F)c(Cl)c(F)c1Cl | 17% (inactive)
* O=C1Oc2ccccc2C1c1ccccc1 (centres undefined) | 1% (inactive)
* OCc1ccc(OCc2ccccc2)c(OCc2ccccc2)c1 | 0% (inactive)
* CCCCN(C)C(=S)N/N=C(\C)c1ccccn1 | 98% (active)
* Oc1ccccc1/C=N/NC(=S)NC12CC3CC(CC(C3)C1)C2 | 10% (inactive)
* CCCC(=O)Oc1ccc(-c2ccccc2Br)cc1 | 2% (inactive)
* O=C(O)CCC(=O)c1ccc(C2CCCC2)c2ccccc12 | -6% (inactive)
* Cc1cc(/C=C/c2cccc[n+]2C)c(C)n1-c1ccccc1 | 6% (inactive)

----------
This listing pairs compounds with measured growth inhibition.
Assay: NCI Yeast Anticancer Drug Screen. Data for the cln2 rad14 strain (AID 165);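 further: 0% = growth equal to vehicle treated cultures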
Conditions: S. cerevisiae cln2 rad14 strain, at 50.0 µM, hits give high values
Compounds without any hit were thinned out: in the full panel of roughly 79,000, 15% have a hit.
recordedMetric: growth inhibition (%)

* CCN(CC)Cc1cc(N=Nc2c(O)ccc3c(N=Nc4ccc(O)c(CN(CC)CC)c4)c(O)ccc23)ccc1O | 56.6
* Clc1ccc(N=Cc2c3ccccc3cc3ccccc23)c(Cl)c1 | 31
* CN(Cc1ccccc1)c1nc(=[N+](C)C)ss1 | -30.9

----------
Assay: NCI Yeast Anticancer Drug Screen. Data for the rad50 strain (AID 155);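 further: 0% = growth of vehicle-only cultures of the same strain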
Conditions: S. cerevisiae rad50 strain growth inhibition; at 50.0 µM (retest, dose inferred, filed as 5.0)
Method: Growth inhibition of yeast strains with defined genetic alterations is measured as a screen for potential anti-cancer activity. Selected strains with alterations in DNA damage repair or cell cycle control were exposed to compounds and growth inhibition was measured relative to vehicle treated controls. The strain used in this assay is rad50
The panel holds about 79,000 compounds, 15% with a hit somewhere; the sample as a whole holds those more often. The source made the active and inactive calls. No stated cut-off is given here; in the data, active means growth inhibition above about 70%; inactive means the rest.
Labels: active, inactive

* CC1CC(c2ccccc2)CC(C)N1c1ccc2ccccc2c1 (configuration not stated) | active
* Cc1ccc(N=C(N)NN=C(c2ccc(Cl)cc2)c2ccc(Cl)cc2)cc1 | inactive
* O=C(NNc1nc(-c2ccccc2)cs1)Nc1ccccc1 | inactive
* CCN(CC)Cc1cc(N=Nc2c(O)ccc3c(N=Nc4ccc(O)c(CN(CC)CC)c4)c(O)ccc23)ccc1O | active
* C/C(=N\NC(=S)NCc1ccccc1)c1nccnc1C | active
* CCN(CC)c1ccc(SC#N)cc1 | active
* O=C1c2ccc3ccccc3c2CN2C(=O)CCC12 (configuration not stated) | active

----------
This listing pairs compounds with measured growth inhibition.
Test: NCI Yeast Anticancer Drug Screen. Data for the mec2-1 strain (AID 157)
Details: S. cerevisiae mec2-1 strain, at 50.0 µM (retest, dose inferred, filed as 5.0), hits give high values
The panel holds about 79,000 compounds, 15% with a hit somewhere; the sample as a whole holds those more often.
recordedMetric: growth inhibition (%)

- Cc1cccc(C[P+](c2ccccc2)(c2ccccc2)c2ccccc2)c1: 99
- OCc1ccccc1CC(O)(c1ccccc1)c1ccccc1: 87
- N#CSCCSC#N: 93
- O=S1(=O)CC(Cl)(Cl)C1: 52
- CC(=O)OC12CC(C(F)(F)F)(C(F)(F)F)OC1(OC(C)=O)CC(C(F)(F)F)(C(F)(F)F)O2 (centres undefined): 48
- CCOC(=O)C(CCSC)C(=O)OCC: 2
- O=C(Cc1ccc2c(c1)OCO2)c1ccc(O)cc1O: 93
- O=c1oc2cc(N=Cc3ccc4c(c3)OCO4)ccc2c2ccccc12: 24
- O=Cc1ccc(O)c2ccccc12: 47
- O=C1OC(CCCl)(c2ccccc2)CC1CN1CCOCC1 (centres undefined): 90
- Oc1ccc2ccc3ccccc3c2c1: 99
- CCC(=O)Sc1ccccc1C(=O)Nc1ccc(Cl)cc1: 64
- COc1ccc(/C=C/c2c[n+]([O-])ccc2[N+](=O)[O-])cc1: 97
- C[n+]1c(-c2cccc(OCCOCCOc3cccc(-c4c5cc(N)ccc5c5ccc(N)cc5[n+]4C)c3)c2)c2cc(N)ccc2c2ccc(N)cc21: 95
- O=C(/C=C/C(=O)c1ccc(O)cc1)c1ccccc1: 85
- c1cc(NC2CCCCC2)ccc1CN1CCOCC1: 73
- COc1ccc([N+](=O)[O-])cc1[I+]c1cc([N+](=O)[O-])ccc1OC: 89
- CCN1/C(=C\c2cc[n+](CC)c3ccccc23)C=Cc2ccccc21: 96
- CC(C)(C)c1ccc(CN2CCN(C(c3ccccc3)c3ccc(Cl)cc3)CC2)cc1 (centres undefined): 17
- Nc1nc(N)c2nc(CNc3ccc(C(=O)NC(CCC(=O)O)C(=O)O)cc3)cnc2n1 (centres undefined): 91
- CCc1ccccc1NC(=O)C1=C(C)NC(C)=C(C(=O)Nc2c(CC)cccc2CC)C1c1ccc2c(c1)OCO2 (centres undefined): 22
- Cc1nc(-n2nc(-c3ccccc3)cc2-c2ccccc2)sc1C(/C=C\c1ccc([N+](=O)[O-])cc1)=N/NC(=S)NN: 86
- CC(C)(C)CC(C)(C)c1ccc(OCCSC(=N)N)cc1: 100
- CSC(SC)=C(C#N)C(=O)Nc1ccc(C)cc1: 53
- Nc1cc2c(c[n+](CCCCCCCCCC[n+]3cc4c5ccccc5c(N)cc4c4ccccc43)c3ccccc23)c2ccccc12: 96
- Oc1ccc(/C=N/NC(=S)Nc2ccccc2)nc1: 60
- COc1cc2c(ccc3cc4cccc[n+]4cc32)c(Br)c1OC: 73
- S=C(N/N=C/c1ccccn1)Nc1ccccn1: 99
- CCC1OC(OC)C=CC1=O (centres undefined): -25
- Cc1cccc(/C=N/Nc2cc(C)c3ccccc3n2)n1: 96
- CCCCCCCC1SCC(=O)N1c1nncs1 (centres undefined): 65
- CCCCCCCCCCCCCCCCCCOP(=O)([O-])OC1CC[N+](C)(C)CC1: 99
- CCCCCCN(CCCCCC)CCC(=O)c1ccc2cc(Br)c3ccccc3c2c1: 95
- C1=NCCN=Cc2ccccc2NCCNc2ccccc21: -20
- CN(C)c1ccc(/C=C\c2c3ccccc3cc[n+]2[O-])cc1: 0
- CN(C)c1ccc(C2ON=C(c3ccccc3)N2C23CC4CC(CC(C4)C2)C3)cc1 (centres undefined): 3
- NC(=S)N/N=C1/C(=O)c2cccc3cccc1c23: 78
- Clc1ccc(/C=C\c2ccncc2)cc1: 51
- O=C1C(=O)N(c2cc(Cl)ccc2Cl)C(=O)C(=O)C1c1nc2ccccc2o1: 15
- CC(=O)Nc1ccc2c(c1)/C(=N/O)c1ccccc1-2: 90
- CC(=O)c1ccc(Br)cc1NC1=CC(=O)c2ncccc2C1=O: 94
- Cc1c(Cl)cccc1N=NC(=O)NNc1cccc(Cl)c1C: 96
- ClCc1nnc2n1-c1ccc(Cl)cc1SC2: 64
- CC(C)(C)c1cc(C(O)(C(F)(F)F)C(F)(F)F)c(S)c(C(O)(C(F)(F)F)C(F)(F)F)c1: 99
